Consider the following compounds; for each one, report its Ki.
molecular target: rice δ^1-pyrroline-5-carboxylate reductase (Oryza sativa, UniProt Q8GT01); assay: product inhibition of purified recombinant enzyme, NADH-dependent P5C reduction at […] nm; Lineweaver-Burk/non-linear regression
Sequence (Q8GT01 entry or part of it): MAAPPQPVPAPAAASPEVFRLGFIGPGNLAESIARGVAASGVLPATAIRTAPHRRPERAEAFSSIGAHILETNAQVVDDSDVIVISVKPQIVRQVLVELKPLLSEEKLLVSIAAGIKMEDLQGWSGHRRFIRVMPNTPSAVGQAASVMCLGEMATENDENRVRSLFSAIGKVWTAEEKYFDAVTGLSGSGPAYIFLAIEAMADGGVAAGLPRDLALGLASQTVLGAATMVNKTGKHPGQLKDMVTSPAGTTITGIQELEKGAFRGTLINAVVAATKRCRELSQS
Give a bare numeral; the unit mM is implied.

Query: Quick one: Ki for NC(=O)c1ccc[n+]([C@@H]2O[C@H](COP(=O)([O-])OP(=O)(O)OC[C@H]3O[C@@H](n4cnc5c(N)ncnc54)[C@H](OP(=O)(O)O)[C@@H]3O)[C@@H](O)[C@H]2O)c1 ?
Response: 0.00773

Query: For O=C(O)[C@@H]1CCCN1 , what is its reported Ki?
Response: 20.2

Cited source for all entries: paper PMC4517315
